Recorded GI50, one value per entry.
system: SK-MEL-2 melanoma; assay: NCI tumour cell line growth inhibition, 48 h

Here are 5 compounds together with their reported answers.
>>> print(df.to_string())
                         structure_notation  measurement_type   result
0                        Cn1cc(CO)c2ccccc21              GI50  36.2 µM
1   CCCCCCOc1ccc(C(=N)N(CCCC)CCCC)c2ccccc12              GI50  1.72 µM
2     O=c1oc2ccc(F)cc2c(=O)n1-c1ccc(Br)cc1F              GI50  0.46 µM
3              COc1ccccc1/C=C\C(=O)c1ccccc1              GI50  4.36 µM
4  C/C(=N\n1c(N)c(C#N)c(-c2ccc(Cl)cc2)c(C#N)c1=O)c1ccncc1              GI50  27.8 µM

Now for the compound whose GI50 we want.
Query: What value of GI50 on SK-MEL-2 melanoma does O=C(Nc1ccccc1O)c1ccc(CNC(=O)c2ccsc2Nc2ccnc(C(F)(F)F)c2)cc1 have?
Result: 2.1 µM

---

test system: HS 578T breast; assay: NCI tumour cell line growth inhibition, 48 h
Reported TGI by item:

Compound	Target Desc	Result
Cc1ccc(-n2c3c(c4c(CN5CCOCC5)c(O)ccc42)CCc2ccccc2C3=O)cc1	HS 578T breast	> 100 µM
CC1=C2NCN(C)N=C2C(C#N)(C#N)C1(C#N)C#N	HS 578T breast	> 96.3 µM
CC[C@H](C)[C@H](NC(=O)[C@H]1CCCCN1C)C(=O)N(C)[C@H](C[C@@H](OC(C)=O)c1nc(C(=O)N[C@@H](Cc2ccccc2)C[C@H](C)C(=O)OC)cs1)C(C)C	HS 578T breast	6.9 µM
NC(=O)C(=O)n1ncc(Cl)c(Cl)c1=O	HS 578T breast	> 100 µM
O=C(Nc1ccccc1O)c1ccc(CNC(=O)c2ccsc2Nc2ccnc(C(F)(F)F)c2)cc1	HS 578T breast	16.2 µM
Oc1[nH]c2ccccc2c1/C=c1/cc2c(c(-c3ccc(C(F)(F)F)cc3)n1)=Nc1ccccc1-2	HS 578T breast	69.9 µM
O=S1(=O)CCN(c2ccccc2CC(c2c[nH]c3ccccc23)c2c[nH]c3ccccc23)CC1	HS 578T breast	42.7 µM
COC1=CC(=O)C2=C(C1=O)[C@H]1CC[C@]3(C)[C@@H](OC(C)=O)CC[C@H]3[C@@H]1CC2	HS 578T breast	> 100 µM

Query: So what does the record say about TGI for Cc1cc(NC(=O)NC(=O)c2ccccc2N(C)C)ccc1Oc1ncc(Br)cn1 ?
Result: > 100 µM

Query: Now consider COc1ccc2cc(-c3c(-c4ccncc4)nc(-c4ccc(S(C)=O)cc4C)n3C)ccc2c1 (stereo not given) and answer again.
Result: > 25 µM

Query: Moving on to O=C1/C(=C\c2cccc(Oc3ccccc3)c2)SC(c2ccccc2)N1c1cccc([N+](=O)[O-])c1 (stereo not given)
Result: > 100 µM

---

tested on: SR leukemia; assay: NCI tumour cell line growth inhibition, 48 h
Measurement Type: TGI

Illustrative cases are given below, each with its answer.
>>> df
                                   compound     result
0  O=C1/C(=C\c2cccc(Oc3ccccc3)c2)SC(c2ccccc2)N1c1cccc([N+](=O)[O-])c1 (stereo not given)   > 100 µM
1  CC(C)=CCC[C@@H](C)c1c2[nH]c3ccccc3sc-2c(C)c(=O)c1=O  > 61.6 µM
2  CC(=O)Oc1ccc(C2(c3ccc(OC(C)=O)cc3)C(=O)Nc3ccccc32)cc1   > 100 µM
3  C/C(=N/NC(=O)CC(=O)N(C(=O)c1ccccc1Cl)c1ccc(C)cc1)c1cc2ccccc2oc1=O   > 100 µM

Query: Which TGI value belongs to COc1ccc(NC(=O)c2sc3nc4c(cc3c2N)CCCC4)cc1 ?
Result: 16.3 µM

---

test system: UACC-257 melanoma; assay: NCI tumour cell line growth inhibition, 48 h
Measurement Type: TGI

Some solved entries appear below for comparison.
Compound	Target Desc	Result
NS(=O)(=O)c1cc(S(N)(=O)=O)c(NC(=O)N(c2ccccc2)c2ccccc2)c(Cl)c1Cl	UACC-257 melanoma	27.6 µM
N#CCCC1(CCC#N)CCCCCCC(CCC#N)(CCC#N)C(O)C1O (centres undefined)	UACC-257 melanoma	> 100 µM
NS(=O)(=O)c1ccc(NC(=O)c2cccn3c(=O)c4ccccc4nc23)cc1	UACC-257 melanoma	> 100 µM
CCCCCCCCCC(=O)Oc1cccc2onc(C)c12	UACC-257 melanoma	> 100 µM
CCN(CC)CCN(C)CCc1ccc(Br)cc1	UACC-257 melanoma	> 100 µM
COc1cc2nnn3c4ncccc4c(N=O)c3c2cc1OC	UACC-257 melanoma	> 100 µM
CCCNC(=O)CCC(C)[C@H]1CCC2C3C(C[C@H](OC(C)=O)[C@@]21C)[C@@]1(C)CCC2(C[C@H]1C[C@H]3OC(C)=O)OOC1(CCCCC1)OO2 (some centres undefined)	UACC-257 melanoma	> 100 µM
O=c1c2c(nc3n1CCC3)sc1c(O)c(Br)ccc12	UACC-257 melanoma	30.7 µM

Please turn your attention to the following entry.
Query: Query (compound): CC1(C)CCC2(C(=O)OC3OC(CO)C(O)C(O)C3O)CCC3(CO)C(=CCC4C5(C)CC(O)C(O)C(C)(C(=O)OC6OC(CO)C(O)C(O)C6O)C5CCC43C)C2C1 (centres undefined) ; field requested: TGI
Result: > 100 µM

---

Let's look at some compounds and their measured TGI.
test system: DMS 114 small cell lung; assay: NCI tumour cell line growth inhibition, 48 h

Query: Given the compound O=C(OCc1ccccc1C1CSCSC1)c1cc(C(=O)OCc2ccccc2C2CSCSC2)c(C(=O)OCc2ccccc2C2CSCSC2)cc1C(=O)OCc1ccccc1C1CSCSC1 , what is its reported TGI?
Result: > 100 µM

Query: Now give it for COC(=O)c1cc2c3c(ccc2[nH]1)N(C(=O)c1cc2c4c(ccc2[nH]1)N(C(=O)c1cc2c5c(ccc2[nH]1)N(C(N)=O)CC5)CC4)CC3 too.
Result: 57.3 µM

Query: Now the compound c1ccc(OCCSCCCCCCCCCCSCCOc2ccccc2)cc1
Result: > 100 µM

Query: How about O=C(O)[C@@H]1CCCC[C@@H]1C(=O)N(C1CCCCC1)C1CCCCC1 ?
Result: > 100 µM

Query: Same for CCCCCCCCCC(=O)Oc1cccc2onc(C)c12
Result: > 100 µM

---

Measured TGI of individual entries
test system: KM12 colon; test: NCI tumour cell line growth inhibition, 48 h

Here are 3 compounds together with their reported answers.
>>> print(df.to_string())
                                   compound     result
0  CN(C)C/C=C/C(=O)Nc1ccc(C(=O)N2CCC[C@@H](Nc3ncc(Cl)c(-c4c[nH]c5ccccc45)n3)C2)cc1    12.1 µM
1  COC(=O)c1c(OC)cc2cc3c(c(O)c2c1C)C(=O)C1(O)C(=O)C=C(OC)C(OC(=O)CC(C)N)=C1C3=O (stereo not given)    42.7 µM
2  COC(=O)[C@H](Cc1ccccc1)NC(=O)c1csc([C@@H](C[C@H](C(C)C)N(C)C(=O)[C@@H](NC(=O)[C@H]2CCCN2C)C2CC2)OC(C)=O)n1  > 33.3 µM

Query: Recorded TGI for CCOC(=O)C[C@@]12CCCNC1(C)CCc1ccccc12 (stereo not given in full) , please?
Result: > 100 µM

Query: Also C[C@@H]1C/C=C\C(=O)O[C@H](/C=C/C#C/C=C/C(C)(C)[C@@H](O)c2cccc(O)c2Br)[C@@H](C)/C=C/[C@H](C)C[C@H](OC(N)=O)C1 , if possible.
Result: 16.2 µM

Query: Also need CCOC(=O)C1CCCCc2sc(N)c(C#N)c21 (stereo not given) , thanks.
Result: > 100 µM

---

test system: NCI-H23 lung; experiment: NCI tumour cell line growth inhibition, 48 h
Measurement Type: log10 of TGI (log10 of the value in µM)
Log10 applied to TGI; unit prior to transform: µM.

Compound	log10 of TGI
CN(C)C(=O)SC1=C(c2c(Cl)cccc2Cl)C(=O)c2ccccc21	1.28

Query: # log10 of TGI lookup, item O=C(CCN1CCCC1)Nc1ccc2c(Nc3ccccc3)c3ccccc3nc2c1
Result: 0.30

Query: Try this compound next: O=c1c2c(nc3n1CCC3)sc1c(O)c(Br)ccc12
Result: 1.97

Query: What about Cc1cc([N+](=O)[O-])c(S(=O)(=O)c2ccccc2)c([N+](=O)[O-])c1 ?
Result: 1.42

Query: // query: COc1ccc(C(=O)c2ccc(-n3cc(/C=C/[N+](=O)[O-])c4ccccc43)cc2)cc1
Result: 1.72

Query: # repeat for C=C[C@@](C)(/C=C/c1ccc(O)cc1)CCC=C(C)C
Result: 1.48

Query: Further, for Nc1ncnc2c1c(-c1ccc(Oc3ccccc3)cc1)nn2C[C@@H]1SSC[C@@H]1O ?
Result: 0.90

Query: Another: CC(=O)OCCC(O[Si](c1ccccc1)(c1ccccc1)C(C)(C)C)C(C)(C)O (centres undefined)
Result: 1.84

Query: Same again, this time with CCCNC(=O)CCC(C)[C@H]1CCC2C3C(C[C@H](OC(C)=O)[C@@]21C)[C@@]1(C)CCC2(C[C@H]1C[C@H]3OC(C)=O)OOC1(CCCCC1)OO2 (some centres undefined)
Result: 0.55

Query: Also check O=C(Nc1ccc(Cl)cc1)Nc1ccccc1CNc1nc(Nc2ccc(OCCN3CCCC3)cc2)ncc1Cl
Result: 1.00

Query: Cool, now COc1cc2nnn3c4ncccc4c(N=O)c3c2cc1OC
Result: 1.45
